Values from PubChem BioAssay (NCATS)

Assay: MultiTox-Fluor Cytotoxicity Assay - LYMP1-003 - Live Cells (AID 962);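 further: cells exposed to compound for 16 hours at 37 °C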
Conditions: LYMP1-003 lymphoblastoid cells, MultiTox-Fluor live-cell protease fluorescence; series mostly up to 92.2 µM
Activity calls are given as the source filed them. The call rests on the fitted dose curve; in most records, active means well fitted cell-killing curve with a large enough effect; inconclusive means small, poorly fitted or top-dose-only effect; inactive means flat fitted curve, though single readings scatter.
Hi there, use one of these labels in your reply, thanks! label 1 = active, label 0 = inactive

Solved entries (count: 6):
Cc1cc(O)c2c(c1)C(=O)c1cc(O)cc(O)c1C2=O : label 0
CC(=O)Nc1ccc(O)cc1 : label 0
CCCCC(CC)COC(=O)C(C#N)=C(c1ccccc1)c1ccccc1 (configuration not stated) : label 0
CCc1nc(N)nc(N)c1-c1ccc(Cl)cc1 : label 0
COc1c2occc2cc2ccc(=O)oc12 : label 0
CN(C)c1ccc2nc3ccc(=[N+](C)C)cc-3sc2c1 : label 1

Kindly review the next molecule as well.
Per the assay record, what outcome was assigned to c1ccc2[nH]c(-c3cscn3)nc2c1 ?
label 0
